assay: Cytotoxicity against human hepatoma cells assessed as cell viability by MTS assay; format: cell-based
metric: CC50

compound: Cc1cccc(Cn2c(C(=O)NS(C)(=O)=O)c(-c3ccc[nH]c3=O)c3c4occc4ccc32)c1F
CC50: > 10 µM

Problem: Entry `O=C(O)c1c(-c2ccc[nH]c2=O)c2c3occc3ccc2n1Cc1cc(F)ccc1F` has what CC50?
Solution: > 10 µM

Problem: Entry `CCS(=O)(=O)NC(=O)c1c(-c2ccc[nH]c2=O)c2c3occc3ccc2n1Cc1cc(F)ccc1F` has what CC50?
Solution: > 10 µM

Problem: Entry `CS(=O)(=O)NC(=O)c1c(-c2ccc[nH]c2=O)c2c3occc3ccc2n1Cc1cc(F)ccc1F` has what CC50?
Solution: > 10 µM

====

experiment: AUC (0 to 6 hrs) in rat at 10 mg/kg, po; assay type: ADME, organism-based; set-up: time < 6 hr, dose 10 mg/kg, route oral; details: plasma
metric: AUC(0-t) at 6 h (µM·h)
Answer with a number only, understood to be in µM·h.

compound: CS(=O)(=O)NC(=O)c1c(-c2ccc[nH]c2=O)c2c3occc3ccc2n1Cc1ccc(F)cc1F
test.value: 2.4

Problem: Entry `CCS(=O)(=O)NC(=O)c1c(-c2ccc[nH]c2=O)c2c3occc3ccc2n1Cc1cc(F)ccc1F` has what AUC(0-t) at 6 h?
Solution: 0.7

Problem: Entry `Cc1cccc(Cn2c(C(=O)NS(C)(=O)=O)c(-c3ccc[nH]c3=O)c3c4occc4ccc32)c1F` has what AUC(0-t) at 6 h?
Solution: 0.3

Problem: Entry `CS(=O)(=O)NC(=O)c1c(-c2ccc[nH]c2=O)c2c3occc3ccc2n1Cc1ccccc1F` has what AUC(0-t) at 6 h?
Solution: 9.5

Problem: Entry `O=C(O)c1c(-c2ccc[nH]c2=O)c2c3occc3ccc2n1Cc1cc(F)ccc1F` has what AUC(0-t) at 6 h?
Solution: 146

Problem: Entry `O=C(O)c1c(-c2ccc[nH]c2=O)c2c3c(ccc2n1Cc1cc(F)ccc1F)CCC3` has what AUC(0-t) at 6 h?
Solution: 104

Problem: Entry `CC(C)S(=O)(=O)NC(=O)c1c(-c2ccc[nH]c2=O)c2c3occc3ccc2n1Cc1cc(F)ccc1F` has what AUC(0-t) at 6 h?
Solution: 1

Problem: Entry `O=C(O)c1c(-c2ccc[nH]c2=O)c2c3c(ccc2n1Cc1cc(F)ccc1F)CCO3` has what AUC(0-t) at 6 h?
Solution: 11

Problem: Entry `CS(=O)(=O)NC(=O)c1c(-c2ccc[nH]c2=O)c2c3occc3ccc2n1Cc1cc(F)ccc1F` has what AUC(0-t) at 6 h?
Solution: 11

Problem: Entry `O=C(O)c1c(-c2ccc[nH]c2=O)c2c3scnc3ccc2n1Cc1cc(F)ccc1F` has what AUC(0-t) at 6 h?
Solution: 104

Problem: Entry `Cc1ccccc1Cn1c(C(=O)NS(C)(=O)=O)c(-c2ccc[nH]c2=O)c2c3occc3ccc21` has what AUC(0-t) at 6 h?
Solution: 1.2

====

Form field: pIC50 (one value per entry).
tested on: Hepatitis C virus; assay: Inhibition of HCV-1b Con-1 C-terminal His6x-tagged NS5B delta21 RNA dependent RNA polymerase expressed in Escherichia coli JM109 (DE3) assessed as [alpha-33P]CTP incorporation in RNA after 30 mins by scintillation counting analysis; parameters: species or system Hepatitis C virus subtype 1b; conditions: Con1, JM 109, 0.5 h
// returns pIC50 (minus log10 of molar concentration), number only

Problem: Record lookup: for Hepatitis C virus, what pIC50 belongs to `Cc1cc2ccc3c(c(-c4ccc[nH]c4=O)c(C(=O)O)n3Cc3cc(F)ccc3F)c2o1` ?
Solution: 7.68

Problem: Record lookup: for Hepatitis C virus, what pIC50 belongs to `O=C(O)c1c(-c2ccc[nH]c2=O)c2c3c(ccc2n1Cc1cc(F)ccc1F)OC(F)(F)O3` ?
Solution: 8.15

Problem: Record lookup: for Hepatitis C virus, what pIC50 belongs to `O=C(NS(=O)(=O)C1CC1)c1c(-c2ccc[nH]c2=O)c2c3occc3ccc2n1Cc1cc(F)ccc1F` ?
Solution: 7.80

Problem: Record lookup: for Hepatitis C virus, what pIC50 belongs to `CS(=O)(=O)NC(=O)c1c(-c2ccc[nH]c2=O)c2c3occc3ccc2n1Cc1ccc(F)cc1F` ?
Solution: 7.51

Problem: Record lookup: for Hepatitis C virus, what pIC50 belongs to `O=C(O)c1c(-c2ccc[nH]c2=O)c2c3ccoc3ccc2n1Cc1cc(F)ccc1F` ?
Solution: 7.47

Problem: Record lookup: for Hepatitis C virus, what pIC50 belongs to `CC(C)S(=O)(=O)NC(=O)c1c(-c2ccc[nH]c2=O)c2c3occc3ccc2n1Cc1cc(F)ccc1F` ?
Solution: 8.10

Problem: Record lookup: for Hepatitis C virus, what pIC50 belongs to `O=C(O)c1c(-c2ccc[nH]c2=O)c2c3scnc3ccc2n1Cc1cc(F)ccc1F` ?
Solution: 5.77

Problem: Record lookup: for Hepatitis C virus, what pIC50 belongs to `Cc1coc2c1ccc1c2c(-c2ccc[nH]c2=O)c(C(=O)O)n1Cc1cc(F)ccc1F` ?
Solution: 5.54

Problem: Record lookup: for Hepatitis C virus, what pIC50 belongs to `O=C(O)c1c(-c2ccc[nH]c2=O)c2c3occc3ccc2n1Cc1cc(F)ccc1F` ?
Solution: 7.51

====

tested on: Hepatitis C virus; experiment: Inhibition of HCV-1b Con-1 C-terminal His6x-tagged NS5B delta21 RNA dependent RNA polymerase expressed in Escherichia coli JM109 (DE3) assessed as [alpha-33P]CTP incorporation in RNA after 30 mins by scintillation counting analysis; parameters: species or system Hepatitis C virus subtype 1b; conditions: Con1, JM 109, 0.5 h
metric: pIC50
// returns pIC50 (minus log10 of molar concentration), number only

Sample answers from the record:
compound: CCS(=O)(=O)NC(=O)c1c(-c2ccc[nH]c2=O)c2c3occc3ccc2n1Cc1cc(F)ccc1F
test.value: 8.22
--
compound: O=C(O)c1c(-c2ccc[nH]c2=O)c2c3c(ccc2n1Cc1cc(F)ccc1F)CCO3
test.value: 8.10
--
compound: CS(=O)(=O)NC(=O)c1c(-c2ccc[nH]c2=O)c2c3occc3ccc2n1Cc1ccccc1Cl
test.value: 8.52
--
compound: Cc1ccc(Cn2c(C(=O)NS(C)(=O)=O)c(-c3ccc[nH]c3=O)c3c4occc4ccc32)c(C)c1
test.value: 8.22

Next compound, please.
Problem: Entry `O=C(NS(=O)(=O)Cc1ccccc1)c1c(-c2ccc[nH]c2=O)c2cc(Cl)ccc2n1Cc1cc(F)ccc1F` has what pIC50?
Solution: 8.00

====

system: Hepatitis C virus; experiment: Inhibition of HCV-1b Con-1 C-terminal His6x-tagged NS5B delta21 RNA dependent RNA polymerase expressed in Escherichia coli JM109 (DE3) assessed as [alpha-33P]CTP incorporation in RNA after 30 mins by scintillation counting analysis; set-up: species or system Hepatitis C virus subtype 1b; conditions: Con1, JM 109, 0.5 h
Form field: IC50 (one value per entry).
Answer with a number only, understood to be in nM.

compound: O=C(O)c1c(-c2ccc[nH]c2=O)c2c3ncsc3ccc2n1Cc1cc(F)ccc1F
IC50 / nM: 9

compound: CS(=O)(=O)NC(=O)c1c(-c2ccc[nH]c2=O)c2c3occc3ccc2n1Cc1ccccc1F
IC50 / nM: 8

compound: CS(=O)(=O)NC(=O)c1c(-c2ccc[nH]c2=O)c2c3occc3ccc2n1Cc1cc(F)ccc1F
IC50 / nM: 9

compound: Cc1ccccc1Cn1c(C(=O)NS(C)(=O)=O)c(-c2ccc[nH]c2=O)c2c3occc3ccc21
IC50 / nM: 10

Next compound, please.
Problem: Entry `O=C(O)c1c(-c2ccc[nH]c2=O)c2c3c(ccc2n1Cc1cc(F)ccc1F)CCC3` has what IC50?
Solution: 27

====

tested on: Hepatitis C virus; assay: Inhibition of HCV-1b Con-1 C-terminal His6x-tagged NS5B delta21 RNA dependent RNA polymerase expressed in Escherichia coli JM109 (DE3) assessed as [alpha-33P]CTP incorporation in RNA after 30 mins by scintillation counting analysis; set-up: species or system Hepatitis C virus subtype 1b; details: Con1, JM 109, 0.5 h
metric: IC50

Sample answers from the record:
compound: CS(=O)(=O)NC(=O)c1c(-c2ccc[nH]c2=O)c2c3occc3ccc2n1Cc1cc(C(N)=O)ccc1F
IC50: 10 nM

compound: O=C(O)c1c(-c2ccc[nH]c2=O)c2c3occ(Cl)c3ccc2n1Cc1cc(F)ccc1F
IC50: 7 nM

Problem: Entry `Cc1cccc(Cn2c(C(=O)NS(C)(=O)=O)c(-c3ccc[nH]c3=O)c3c4occc4ccc32)c1F` has what IC50?
Solution: 3 nM

Problem: Entry `CCc1coc2c1ccc1c2c(-c2ccc[nH]c2=O)c(C(=O)O)n1Cc1cc(F)ccc1F` has what IC50?
Solution: > 5000 nM

FYI, the data here is from ChEMBL document CHEMBL2346621.
